biological target: MST1 (Homo sapiens (Human), UniProt Q13043); assay: MST1 biochemical LanthaScreen Eu Kinase Binding Assay; details: read-out: Kinase Binding assay-MST1 IC50
Sequence (Q13043 whole entry): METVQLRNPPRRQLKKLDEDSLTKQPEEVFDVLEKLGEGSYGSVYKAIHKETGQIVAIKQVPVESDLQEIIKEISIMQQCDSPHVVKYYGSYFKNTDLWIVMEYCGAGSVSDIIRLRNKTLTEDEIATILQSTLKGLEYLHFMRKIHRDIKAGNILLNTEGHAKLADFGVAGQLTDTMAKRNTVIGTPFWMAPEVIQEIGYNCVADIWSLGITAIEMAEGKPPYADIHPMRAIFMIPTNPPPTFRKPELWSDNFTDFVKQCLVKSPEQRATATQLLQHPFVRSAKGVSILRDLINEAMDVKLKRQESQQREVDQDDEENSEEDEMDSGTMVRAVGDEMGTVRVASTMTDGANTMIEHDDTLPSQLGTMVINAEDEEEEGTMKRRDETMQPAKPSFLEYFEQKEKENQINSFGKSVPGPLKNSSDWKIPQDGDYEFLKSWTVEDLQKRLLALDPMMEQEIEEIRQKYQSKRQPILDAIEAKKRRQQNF
measuredEndpoint: IC50

# input Value wanted: IC50 (MST1 (Homo sapiens (Human), UniProt Q13043)) of entry CCOc1cc2ncc(C#N)c(Nc3ccc(OCc4cccc(C)n4)c(Cl)c3)c2cc1NC(=O)CCCN(C)C [Example 12]
# output < 100 nM

# input Form field: IC50 recorded for CCOc1cc2ncc(C#N)c(Nc3ccc(OCc4ncccc4C)c(Br)c3)c2cc1NC(=O)CCCN(C)C [Example 24] with MST1 (Homo sapiens (Human), UniProt Q13043) (enter value)
# output < 100 nM

# input Could you share what IC50 was measured for CCOc1cc2ncc(C#N)c(Nc3ccc(OCc4nc(Br)ccc4C)cc3Cl)c2cc1NC(=O)CCCN(C)C [Example 77] , tested on MST1 (Homo sapiens (Human), UniProt Q13043)?
# output < 100 nM

# input // lookup IC50 | system=MST1 (Homo sapiens (Human), UniProt Q13043) | key= CCOc1cc2ncc(C#N)c(Nc3ccc(OCc4cccc(C(F)(F)F)n4)c(Cl)c3)c2cc1NC(=O)CCCN(C)C [Example 54]
# output 100 to 1000 nM

# input Form entry - test system: MST1 (Homo sapiens (Human), UniProt Q13043); read-out: IC50; compound: CCOc1cc2ncnc(Nc3ccc(OCc4ncccc4C)cc3Cl)c2cc1NC(=O)CCCN(C)C [Example 146]
# output 1000 to 10000 nM

# input Observed IC50 on MST1 (Homo sapiens (Human), UniProt Q13043) for CCOc1cc2ncc(C#N)c(Nc3ccc(NCc4ccccn4)c(Cl)c3)c2cc1NC(=O)CCCN(C)C [Example 111] , please.
# output 100 to 1000 nM

# input For MST1 (Homo sapiens (Human), UniProt Q13043), provide IC50 of CCOc1cc2ncc(C#N)c(Nc3ccc(OCc4ncccc4C4CC4)c(Cl)c3)c2cc1NC(=O)CCCN(C)C [Example 44] please.
# output 100 to 1000 nM

# input Requested read-out IC50, target or system MST1 (Homo sapiens (Human), UniProt Q13043), entry CCOc1cc2ncc(C#N)c(Nc3ccc(OC)cc3)c2cc1NC(C)=O [Example 121]
# output 100 to 1000 nM

# input Entry CCOc1cc2ncc(C#N)c(Nc3ccccc3)c2cc1NC(C)=O [Example 115] , system MST1 (Homo sapiens (Human), UniProt Q13043): what IC50 was measured?
# output 1000 to 10000 nM

# input Kindly state the measured IC50 obtained for CCOc1cc2ncc(C#N)c(Nc3ccc(OCc4ccc(C(=O)OC)cn4)c(Cl)c3)c2cc1NC(=O)CCCN(C)C [Example 58] with MST1 (Homo sapiens (Human), UniProt Q13043).
# output 100 to 1000 nM

# input Please tell me: IC50 of CCOc1cc2ncc(C#N)c(Nc3cccc(C)c3)c2cc1NC(C)=O [Example 130] , system MST1 (Homo sapiens (Human), UniProt Q13043)?
# output 1000 to 10000 nM

# input Value wanted: IC50 (MST1 (Homo sapiens (Human), UniProt Q13043)) of entry CCOc1cc2ncc(C#N)c(Nc3ccc(OCc4ncccc4C#N)c(Cl)c3)c2cc1NC(=O)CCCN(C)C [Example 19]
# output < 100 nM

# input Query the reported IC50 for MST1 (Homo sapiens (Human), UniProt Q13043); item: CCOc1cc2ncc(C#N)c(Nc3cc(Cl)c(OCc4ncccc4C)cc3C)c2cc1NC(=O)CCCN(C)C [Example 78]
# output < 100 nM
